Where do these numbers come from? They come from patent US20240417458A1.

// kon lookup, one value per entry
# SYSTEM UNDER TEST: T1, soluble rat RGMa (rat, UniProt D4A188 48-421)
# T1 construct: Soluble antigen in BIAcore
# T1 sequence: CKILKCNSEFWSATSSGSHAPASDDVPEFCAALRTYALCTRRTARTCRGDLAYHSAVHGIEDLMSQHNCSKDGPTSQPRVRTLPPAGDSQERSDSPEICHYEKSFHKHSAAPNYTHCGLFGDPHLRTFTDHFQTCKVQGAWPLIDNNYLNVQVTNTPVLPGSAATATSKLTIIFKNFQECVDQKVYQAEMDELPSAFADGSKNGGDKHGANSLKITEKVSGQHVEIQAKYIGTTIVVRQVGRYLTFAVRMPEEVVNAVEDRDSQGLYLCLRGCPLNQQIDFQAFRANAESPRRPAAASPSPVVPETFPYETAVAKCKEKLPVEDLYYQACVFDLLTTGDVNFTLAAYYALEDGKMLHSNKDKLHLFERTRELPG
# ASSAY: SPR (BIAcore);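 note: binding kinetics and affinity of anti-HJV antibodies toward soluble rat RGMa, determined by SPR on a BIAcore instrument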
Express the result in M⁻¹ s⁻¹ but write the number alone.

binder="hHA-011 (antibody, human IgG1, kappa, L234A L235A, V domains shown, hIgG1 L234A, L235A, kappa) VH: EVQLVESGGGLVQPGGSLRLSCAASGFTFSNYGMNWVRQAPGKGLEWIGMIYYDSSEKHYADSVKGRFTISRDNSKNTLYLQMNSLRAEDTAVYYCAKGSTPDYWGQGTMVTVSS VL: DVVLTQSPLSLPVTLGQPASISCRSSQSLEDSDGGTFLEWFQQRPGQSPRLLIYDVSSRFSGVPDRFSGSGSGTDFTLKISRVEAEDVGVYYCFQATHDPLSFGQGTKLEIKR" attribute_measured=kon unit_of_measurement="M⁻¹ s⁻¹" numeric_value=700000

Data request: Requested field: kon. Item: hHA-007 (antibody, human IgG1, kappa, L234A L235A, V domains shown, hIgG1 L234A, L235A, kappa) VH: EVQLVESGGGLVQPGGSLRLSCAASGFTFSNYGMNWIRQAPGKGLEWIGMIYYDSSDKHYADSVKGRFTISRDNSKNTLYLQMNSLRAEDTAVYYCAKGTTPDVWGQGTMVTVSS VL: DVVLTQSPLSLPVTLGQPASISCRSSQSLEESDGYTFLHWFQQRPGQSPRLLIYEVSNRFSGVPDRFSGSGSGTDFTLKISRVEAEDVGVYYCFQATHDPVTFGQGTKLEIKR
Data returned: 510000
